- System Tested: OX2R F227A (Homo sapiens, UniProt O43614, F227A)
- Construct: expressed in transfected cells; host or cells: CHO-K1 stably expressing EA β-arrestin2
- Test Details: β-arrestin PathHunter assay, OX2R F227A
- Type: cell-based
- Assay Context: β-arrestin recruitment; read-out: EC50
pEC50: −log10 of the molar value.
Readout Kind: pEC50

Need pEC50 of COC(=O)N1CCC[C@H](NS(C)(=O)=O)[C@@H]1CO[C@H]1CC[C@@H](c2ccccc2)CC1 [TAK-925] , thanks.
< 4.52

====

- System Tested: OX2R Q134A (Homo sapiens, UniProt O43614, Q134A)
- Sequence (O43614 1-444 Q134A): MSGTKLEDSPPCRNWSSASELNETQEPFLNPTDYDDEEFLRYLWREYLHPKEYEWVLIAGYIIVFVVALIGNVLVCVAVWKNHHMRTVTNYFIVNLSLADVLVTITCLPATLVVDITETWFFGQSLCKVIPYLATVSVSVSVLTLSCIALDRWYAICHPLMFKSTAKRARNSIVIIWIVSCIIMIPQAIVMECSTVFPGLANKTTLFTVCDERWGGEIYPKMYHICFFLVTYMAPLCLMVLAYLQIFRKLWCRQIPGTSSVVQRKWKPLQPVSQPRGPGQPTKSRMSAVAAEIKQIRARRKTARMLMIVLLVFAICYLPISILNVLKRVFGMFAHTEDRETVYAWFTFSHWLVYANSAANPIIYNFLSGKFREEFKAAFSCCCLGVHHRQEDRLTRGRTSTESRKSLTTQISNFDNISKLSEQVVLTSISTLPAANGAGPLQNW
- Test Details: β-arrestin PathHunter assay, OX2R Q134A
- Assay type: cell-based
- Design: expressed in transfected cells; host or cells: CHO-K1 stably expressing EA β-arrestin2
- Assay Context: β-arrestin recruitment; read-out: EC50
Readout Kind: EC50

Need EC50 of COC(=O)N1CCC[C@H](NS(C)(=O)=O)[C@@H]1CO[C@H]1CC[C@@H](c2ccccc2)CC1 , thanks.
> 30 µM

====

- System Tested: OX1R A127T (Homo sapiens, UniProt O43613, A127T)
- Construct: FLAG
- Sequence (O43613 whole entry A127T): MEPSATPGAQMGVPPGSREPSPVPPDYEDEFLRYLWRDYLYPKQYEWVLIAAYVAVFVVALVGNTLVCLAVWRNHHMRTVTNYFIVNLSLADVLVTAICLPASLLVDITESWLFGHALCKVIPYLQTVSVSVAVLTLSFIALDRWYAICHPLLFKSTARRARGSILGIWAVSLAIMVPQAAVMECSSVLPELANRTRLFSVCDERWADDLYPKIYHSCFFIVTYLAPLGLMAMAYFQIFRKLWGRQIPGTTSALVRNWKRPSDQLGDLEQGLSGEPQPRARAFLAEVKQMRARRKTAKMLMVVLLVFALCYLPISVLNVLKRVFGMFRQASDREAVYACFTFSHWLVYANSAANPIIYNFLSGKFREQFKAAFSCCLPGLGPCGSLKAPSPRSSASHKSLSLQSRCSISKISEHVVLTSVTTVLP
- Test Details: IP accumulation assay, OX1R A127T
- Assay Context: IP accumulation
Readout Kind: EC50

Need EC50 of COC(=O)N1CCC[C@H](NS(C)(=O)=O)[C@@H]1CO[C@H]1CC[C@@H](c2ccccc2)CC1 , thanks.
4.7 µM

====

- System Tested: human OX2R wild type (Homo sapiens, UniProt O43614)
- Test Details: Inositol phosphate accumulation assay for Gq signaling, OX2R WT
- Assay Context: IP accumulation
Readout Kind: EC50 (nM)
Expressed in nM, but write only the number.

// fetch human OX2R wild type (Homo sapiens, UniProt O43614) EC50 for COC(=O)N1CCC[C@H](NS(C)(=O)=O)[C@@H]1CO[C@H]1CC[C@@H](c2ccccc2)CC1
7.5

====

- System Tested: OX2R Y232A (Homo sapiens, UniProt O43614, Y232A)
- Sequence (O43614 1-444 Y232A): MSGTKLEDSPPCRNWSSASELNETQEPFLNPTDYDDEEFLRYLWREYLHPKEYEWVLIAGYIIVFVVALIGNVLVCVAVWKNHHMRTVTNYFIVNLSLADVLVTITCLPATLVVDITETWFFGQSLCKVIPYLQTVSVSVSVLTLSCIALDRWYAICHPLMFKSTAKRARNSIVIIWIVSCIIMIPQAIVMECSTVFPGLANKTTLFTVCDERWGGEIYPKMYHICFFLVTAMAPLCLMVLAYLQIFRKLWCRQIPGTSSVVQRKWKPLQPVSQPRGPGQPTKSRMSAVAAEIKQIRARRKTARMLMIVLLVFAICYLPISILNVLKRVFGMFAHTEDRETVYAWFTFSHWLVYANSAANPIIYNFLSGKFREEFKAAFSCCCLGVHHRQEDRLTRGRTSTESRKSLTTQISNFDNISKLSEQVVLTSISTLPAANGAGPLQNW
- Test Details: β-arrestin PathHunter assay, OX2R Y232A
- Assay Context: β-arrestin recruitment
Readout Kind: EC50 (µM)
Expressed in µM, but write only the number.

Need EC50 of COC(=O)N1CCC[C@H](NS(C)(=O)=O)[C@@H]1CO[C@H]1CC[C@@H](c2ccccc2)CC1 , thanks.
8.5
